Hepatotoxicity measurements of HepSE_elevated liver function tests, listed per entry.
Kindly provide the number alone.

compound	HepSE_elevated liver function tests
O=NN(CCCl)C(=O)NC1CCCCC1	0
CC1(C)O[C@@H]2[C@@H](CO[C@@]3(COS(N)(=O)=O)OC(C)(C)O[C@@H]23)O1 [TOPIRAMATE]	0
c1ccc2c(CC3=NCCN3)cccc2c1	0

Give HepSE_elevated liver function tests; test system Hepatotoxicity; compound C[C@@H](c1ncncc1F)[C@](O)(Cn1cncn1)c1ccc(F)cc1F
1

Give HepSE_elevated liver function tests; test system Hepatotoxicity; compound CCOC(=O)[C@H](CCc1ccccc1)N[C@H]1CCc2ccccc2N(CC(=O)O)C1=O
0

----------
Hepatotoxicity measurements of HepSE_hepatic failure, listed per entry.
Kindly provide the number alone.

Consider the worked cases shown below.
compound	HepSE_hepatic failure
CN(C)CCCN1c2ccccc2CCc2ccccc21 [IMIPRAMINE]	0
O=c1[nH]c2ccccc2n1CCCN1CCC(n2c(=O)[nH]c3cc(Cl)ccc32)CC1 [DOMPERIDONE]	0
Cc1cn[nH]c1 [FOMEPIZOLE]	0

Next compound, HepSE_hepatic failure to be filled in.
Fill in HepSE_hepatic failure for record O=C1CCc2ccc(OCCCCN3CCN(c4cccc(Cl)c4Cl)CC3)cc2N1 [ARIPIPRAZOLE]
0

----------
Test system: Hepatotoxicity
Reported HepSE_hepatomegaly by item:

Consider the worked cases shown below.
molecule	HepSE_hepatomegaly
CC1COc2c(N3CCN(C)CC3)c(F)cc3c(=O)c(C(=O)O)cn1c23 (stereo not drawn)	0
COc1ccc2c(c1)c(CC(=O)O)c(C)n2C(=O)c1ccc(Cl)cc1	0
C[C@]12C=CC(=O)C=C1CC[C@@H]1[C@@H]2[C@@H](O)C[C@@]2(C)[C@H]1CC[C@]2(O)C(=O)CO	1
O=C1CC2(CCCC2)CC(=O)N1CCCCN1CCN(c2ncccn2)CC1	0
Cc1ccc(O)c([C@H](CCN(C(C)C)C(C)C)c2ccccc2)c1	0

Fill in HepSE_hepatomegaly for record CN(C)C(=O)Oc1ccc[n+](C)c1
0

Fill in HepSE_hepatomegaly for record Cc1ncc([N+](=O)[O-])n1CCO
0

Fill in HepSE_hepatomegaly for record O=C(NCC1CCCCN1)c1cc(OCC(F)(F)F)ccc1OCC(F)(F)F (stereo not drawn) [FLECAINIDE]
0

Fill in HepSE_hepatomegaly for record CC1(C)O[C@@H]2C[C@H]3[C@@H]4C[C@H](F)C5=CC(=O)CC[C@]5(C)[C@H]4[C@@H](O)C[C@]3(C)[C@]2(C(=O)CO)O1 [FLURANDRENOLIDE]
0

Fill in HepSE_hepatomegaly for record COCCOC(=O)C1=C(C)NC(C)=C(C(=O)OC(C)C)C1c1cccc([N+](=O)[O-])c1 (stereo not drawn)
0

----------
Hepatotoxicity measurements of HepSE_hepatomegaly, listed per entry.
Kindly provide the number alone.

Consider the worked cases shown below.
compound	HepSE_hepatomegaly
CC(CCc1ccc(O)cc1)NCCc1ccc(O)c(O)c1 (stereo not drawn)	0
NC(=O)c1cnccn1 [PYRAZINAMIDE]	0
CC(=O)OCC(=O)[C@@]12OC3(CCCC3)O[C@@H]1C[C@H]1[C@@H]3CCC4=CC(=O)C=C[C@]4(C)[C@@]3(F)[C@@H](O)C[C@@]12C [AMCINONIDE]	0
CC(C)(C)NC(=O)[C@@H]1CN(Cc2cccnc2)CCN1C[C@@H](O)C[C@@H](Cc1ccccc1)C(=O)N[C@H]1c2ccccc2C[C@H]1O.O	0
C[C@]12COC(=O)C[C@@H]1CC[C@@H]1[C@@H]2CC[C@@]2(C)[C@H]1CC[C@]2(C)O	0
OC(c1cc(C(F)(F)F)nc2c(C(F)(F)F)cccc12)C1CCCCN1 (stereo not drawn)	0
C#CC1(O)CCC2C3CCC4=CC(=O)CCC4C3C(=C)CC21CC (stereo not drawn)	0

Next compound, HepSE_hepatomegaly to be filled in.
Give HepSE_hepatomegaly; test system Hepatotoxicity; compound CCn1nc(C(=O)O)c(=O)c2cc3c(cc21)OCO3
0
